molecular target: Urotensin-2 receptor (Homo sapiens, UniProt Q9UKP6); test: Inhibition of hU-II-mediated [Ca2+]i mobilization in HEK293 cells expressing human recombinant Urotensin 2 receptor in FLIPR assay; assay type: cell-based
attribute measured: pIC50
Value format note: pIC50 is -log10 of concentration (mol/L); just state the number.

Req: Using the record for "CN(C)CCCOc1ccc(CN2CC[C@H](NC(=O)c3ccc(Cl)c(Cl)c3)C2)cc1" , report its pIC50.
Resp: 6.80

---

Biological target: UniProtKB Q9UKP6
Sequence (Q9UKP6 whole entry): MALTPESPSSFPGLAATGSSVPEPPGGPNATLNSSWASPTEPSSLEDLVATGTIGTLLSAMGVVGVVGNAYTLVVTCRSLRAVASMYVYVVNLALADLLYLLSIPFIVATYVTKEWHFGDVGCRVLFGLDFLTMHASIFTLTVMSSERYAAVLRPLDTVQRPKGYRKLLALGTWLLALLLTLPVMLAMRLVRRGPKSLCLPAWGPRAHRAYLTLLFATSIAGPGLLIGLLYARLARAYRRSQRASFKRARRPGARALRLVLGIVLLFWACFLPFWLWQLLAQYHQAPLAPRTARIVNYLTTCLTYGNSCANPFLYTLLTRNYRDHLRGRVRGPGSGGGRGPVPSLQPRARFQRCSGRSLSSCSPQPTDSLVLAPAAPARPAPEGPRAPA
attribute measured: pKi
Value format note: pKi is -log10 of concentration (mol/L); just state the number.

Worked examples, 3 compounds total:
sample smiles	pKi
CC(C)C[C@H](NC(=O)c1cc2ccccc2[nH]1)C(=O)N[C@H]1CCN(Cc2ccc(OCCCN(C)C)cc2)C1	6.30
CC(C)C[C@H](NC(=O)c1ccc(Cl)c(Cl)c1)C(=O)N[C@H]1CCN(Cc2ccc(OCCCN(C)C)cc2)C1	6.90
CC(C)C[C@H](NC(=O)Nc1ccccc1)C(=O)N[C@H]1CCN(Cc2ccc(OCCCN(C)C)cc2)C1	6.00

Req: Using the record for "CC(=O)N[C@@H](CC(C)C)C(=O)N[C@H]1CCN(Cc2ccc(OCCCN(C)C)cc2)C1" , report its pKi.
Resp: 5.60

Req: Please give the result for "CC(C)C[C@H](NC(=O)c1cccs1)C(=O)N[C@H]1CCN(Cc2ccc(OCCCN(C)C)cc2)C1" too.
Resp: 6.40

---

target: Urotensin-2 receptor (Homo sapiens, UniProt Q9UKP6); assay: Binding affinity using [125I]hU-II radioligand binding assay in HEK293 cell membranes expressing human Urotensin 2 receptor
Below, each entry is listed alongside its reported Ki.
Provide only the numeric value, understood in nM.

Worked examples, 4 compounds total:
sample smiles	unit abbrev	Ki
Cc1cc(C(=O)N[C@H]2CCN(Cc3ccc(OCCCN(C)C)cc3)C2)ccc1Br	nM	631
CC(C)C[C@H](NC(=O)Cc1ccc2c(c1)OCO2)C(=O)N[C@H]1CCN(Cc2ccc(OCCCN(C)C)cc2)C1	nM	398
CC(C)C[C@H](NC(=O)c1ccc2c(c1)OCO2)C(=O)N[C@H]1CCN(Cc2ccc(OCCCN(C)C)cc2)C1	nM	501
CN(C)CCCOc1ccc(CN2CC[C@H](NC(=O)c3ccccc3)C2)cc1	nM	2510

Req: // fetch Urotensin-2 receptor (Homo sapiens, UniProt Q9UKP6) Ki for "CC(C)C[C@H](NC(=O)c1ccc2ccccc2n1)C(=O)N[C@H]1CCN(Cc2ccc(OCCCN(C)C)cc2)C1"
Resp: 631

Source of measurements: ChEMBL document CHEMBL1140236
